System: A549
assay_info: Antiproliferative activity against human A549 cells expressing EGFR assessed as reduction in cell growth incubated for 48 hrs by MTT assay
Assay type: functional, cell-based
particulars: A549, 48 h
pIC50: −log10 of the molar value.
readout_label: pIC50

Observe how each entry below is paired with its result.
[
  {
    "molecular_string": "O=C(Nc1ccc2oc(-c3ccc(Cl)c(Br)c3)nc2c1)c1ccc(Br)c(F)c1",
    "pIC50": 4.32
  },
  {
    "molecular_string": "O=C(Nc1ccc2oc(-c3ccccc3Br)nc2c1)c1ccc(Cl)c(Br)c1",
    "pIC50": 4.27
  },
  {
    "molecular_string": "O=C(Nc1ccc2oc(-c3ccccc3Cl)nc2c1)c1ccc(Cl)c(Br)c1",
    "pIC50": 4.27
  }
]

1. O=C(Nc1ccc2oc(-c3ccc(Cl)cc3)nc2c1)c1ccc(Br)c(F)c1
2. COc1cc(CC(=O)Nc2ccc3[nH]c(-c4ccc(Cl)cc4)nc3c2)cc(OC)c1OC
Pick one, 1 or 2 : lowest reported pIC50. Mark your selection by writing its label. 1
(1: 4.05, 2: 4.43)

I. COc1cc(CC(=O)Nc2ccc3oc(-c4ccccc4F)nc3c2)cc(OC)c1OC
II. O=C(Nc1ccc2oc(-c3ccc(Cl)cc3)nc2c1)c1ccc(Cl)c(F)c1
Recorded pIC50 values differ for I and II ; which one is higher? Give the chosen item's label as your response. II
(II: 4.29, I: 4.02)

a. COc1ccc(CC(=O)Nc2ccc3[nH]c(-c4ccc(C)cc4)nc3c2)cc1
b. O=C(Nc1ccc2[nH]c(-c3ccc(Cl)cc3)nc2c1)c1ccc(Cl)c(F)c1
Endpoint returns the identifier whose pIC50 is numerically larger, either a or b . Refer to your chosen entry by its label in the reply. b
(b: 4.44, a: 4.07)

====

assay_system: Epidermal growth factor receptor (Homo sapiens)
assay_info: Inhibition of EGFR (unknown origin) using Poly (Glu, Tyr) 4:1 as substrate at 1 uM preincubated with substrate followed by enzyme challenge for 1 hr by ELISA relative to control
readout_label: inhibition (%)

Guide cases for inhibition, answers given:
[
  {
    "molecular_string": "Cc1ccc(CC(=O)Nc2ccc3oc(-c4ccc(Cl)c(Br)c4)nc3c2)cc1",
    "assay_system": "Epidermal growth factor receptor (Homo sapiens)",
    "numeric_readout": 37.4
  },
  {
    "molecular_string": "COc1cc(CC(=O)Nc2ccc3oc(-c4ccc(Cl)cc4)nc3c2)cc(OC)c1OC",
    "assay_system": "Epidermal growth factor receptor (Homo sapiens)",
    "numeric_readout": 58.9
  },
  {
    "molecular_string": "Cc1ccc(CC(=O)Nc2ccc3[nH]c(-c4ccc(Cl)cc4)nc3c2)cc1",
    "assay_system": "Epidermal growth factor receptor (Homo sapiens)",
    "numeric_readout": 48.3
  },
  {
    "molecular_string": "COc1ccc(CC(=O)Nc2ccc3oc(-c4ccc(OC)cc4)nc3c2)cc1",
    "assay_system": "Epidermal growth factor receptor (Homo sapiens)",
    "numeric_readout": 19.4
  },
  {
    "molecular_string": "O=C(Nc1ccc2oc(-c3ccc(Cl)c(Br)c3)nc2c1)c1ccc(Br)c(F)c1",
    "assay_system": "Epidermal growth factor receptor (Homo sapiens)",
    "numeric_readout": 18.4
  },
  {
    "molecular_string": "COc1cc(CC(=O)Nc2ccc3[nH]c(-c4ccc(Cl)cc4)nc3c2)cc(OC)c1OC",
    "assay_system": "Epidermal growth factor receptor (Homo sapiens)",
    "numeric_readout": 43.1
  }
]

I. O=C(Nc1ccc2oc(-c3ccccc3Br)nc2c1)c1ccc(Br)c(F)c1
II. O=C(Nc1ccc2oc(-c3ccc(Cl)cc3)nc2c1)c1ccc(Cl)c(F)c1
III. COc1ccc(CC(=O)Nc2ccc3[nH]c(-c4ccc(C)cc4)nc3c2)cc1
IV. O=C(Nc1ccc2oc(-c3ccccc3)nc2c1)c1ccc(Cl)c(F)c1
Could you please order the items by inhibition, going from the lowest number to the highest? Lab note: record answer as labels in requested order. IV, I, III, II
(IV: 13.9%, I: 21.8%, III: 31.5%, II: 46.8%)

A. O=C(Nc1ccc2oc(-c3ccc(Cl)c(Br)c3)nc2c1)c1ccc(Cl)c(Br)c1
B. COc1ccc(CC(=O)Nc2ccc3oc(-c4ccccc4)nc3c2)cc1OC
Exercise: compare A and B ; which one has the greater inhibition? Please identify the chosen entry by its label. B

====

assay_system: Epidermal growth factor receptor (Homo sapiens)
assay_info: Inhibition of EGFR (unknown origin) using Poly (Glu, Tyr) 4:1 as substrate at 1 uM preincubated with substrate followed by enzyme challenge for 1 hr by ELISA relative to control
readout_label: inhibition (%)

[
  {
    "molecular_string": "O=C(Nc1ccc2oc(-c3ccccc3Cl)nc2c1)c1ccc(Cl)c(Br)c1",
    "numeric_readout": 25.6
  }
]

A. O=C(Nc1ccc2oc(-c3ccccc3Br)nc2c1)c1ccc(Cl)c(F)c1
B. COc1ccc(CC(=O)Nc2ccc3oc(-c4ccc(Cl)cc4)nc3c2)cc1OC
C. O=C(Nc1ccc2oc(-c3ccccc3)nc2c1)c1ccc(Cl)c(Br)c1
Write the entries in order, lowest recorded inhibition first. Kindly provide the labels arranged according to the requested ordering. A, C, B

I. O=C(Nc1ccc2oc(-c3ccccc3F)nc2c1)c1ccc(Cl)c(F)c1
II. COc1ccc(CC(=O)Nc2ccc3oc(-c4ccc(Cl)cc4)nc3c2)cc1
Which of the two gives a bigger number for inhibition: I or II ? // respond with label for picked entry II

====

assay_system: Epidermal growth factor receptor (Homo sapiens)
assay_info: Inhibition of EGFR (unknown origin) using Poly (Glu, Tyr) 4:1 as substrate at 1 uM preincubated with substrate followed by enzyme challenge for 1 hr by ELISA relative to control
readout_label: inhibition (%)

a. O=C(Nc1ccc2oc(-c3ccccc3Cl)nc2c1)c1ccc(Cl)c(F)c1
b. O=C(Nc1ccc2[nH]c(-c3ccc(Cl)cc3)nc2c1)c1ccc(Cl)c(Br)c1
c. COc1ccc(CC(=O)Nc2ccc3[nH]c(-c4ccc(Cl)cc4)nc3c2)cc1
Sort by inhibition with smallest numbers at the start of the list. Answer with the labels in sequence, matching the requested order. a, b, c

P. COc1ccc(CC(=O)Nc2ccc3oc(-c4ccc(C)cc4)nc3c2)cc1
Q. COc1ccc(CC(=O)Nc2ccc3oc(-c4ccccc4Cl)nc3c2)cc1
Could you tell me which of these two has the smaller inhibition figure? First: P Second: Q Answer by quoting the chosen item's label. P
(P: 21.6%, Q: 43.8%)

I. Cc1ccc(CC(=O)Nc2ccc3oc(-c4ccccc4Cl)nc3c2)cc1
II. COc1cc(CC(=O)Nc2ccc3oc(-c4ccc(Cl)c(Br)c4)nc3c2)cc(OC)c1OC
Field: entry with larger inhibition (options I / II ). Could you answer with the label of the item you picked? I
(I: 47.5%, II: 21.5%)

P. COc1cc(CC(=O)Nc2ccc3oc(-c4ccccc4Cl)nc3c2)cc(OC)c1OC
Q. Cc1ccc(CC(=O)Nc2ccc3oc(-c4ccccc4Br)nc3c2)cc1
Smaller inhibition value, P vs Q ? Please respond with the label that marks your chosen entry. P
(P: 26.5%, Q: 39.1%)

I. O=C(Nc1ccc2oc(-c3ccccc3Cl)nc2c1)c1ccc(Br)c(F)c1
II. COc1cc(CC(=O)Nc2ccc3oc(-c4ccccc4)nc3c2)cc(OC)c1OC
Sorting ascending by inhibition, which comes first: I or II ? Kindly give the label for the entry you pick. I

I. COc1ccc(CC(=O)Nc2ccc3oc(-c4ccccc4Br)nc3c2)cc1
II. COc1ccc(CC(=O)Nc2ccc3oc(-c4ccc(Cl)c(Br)c4)nc3c2)cc1OC
# returns the entry with the larger inhibition; inputs I and II Provide the label of your selected option as the answer. I
(I: 36.2%, II: 20.4%)

====

assay_system: UniProtKB P00533
Sequence (P00533 whole entry): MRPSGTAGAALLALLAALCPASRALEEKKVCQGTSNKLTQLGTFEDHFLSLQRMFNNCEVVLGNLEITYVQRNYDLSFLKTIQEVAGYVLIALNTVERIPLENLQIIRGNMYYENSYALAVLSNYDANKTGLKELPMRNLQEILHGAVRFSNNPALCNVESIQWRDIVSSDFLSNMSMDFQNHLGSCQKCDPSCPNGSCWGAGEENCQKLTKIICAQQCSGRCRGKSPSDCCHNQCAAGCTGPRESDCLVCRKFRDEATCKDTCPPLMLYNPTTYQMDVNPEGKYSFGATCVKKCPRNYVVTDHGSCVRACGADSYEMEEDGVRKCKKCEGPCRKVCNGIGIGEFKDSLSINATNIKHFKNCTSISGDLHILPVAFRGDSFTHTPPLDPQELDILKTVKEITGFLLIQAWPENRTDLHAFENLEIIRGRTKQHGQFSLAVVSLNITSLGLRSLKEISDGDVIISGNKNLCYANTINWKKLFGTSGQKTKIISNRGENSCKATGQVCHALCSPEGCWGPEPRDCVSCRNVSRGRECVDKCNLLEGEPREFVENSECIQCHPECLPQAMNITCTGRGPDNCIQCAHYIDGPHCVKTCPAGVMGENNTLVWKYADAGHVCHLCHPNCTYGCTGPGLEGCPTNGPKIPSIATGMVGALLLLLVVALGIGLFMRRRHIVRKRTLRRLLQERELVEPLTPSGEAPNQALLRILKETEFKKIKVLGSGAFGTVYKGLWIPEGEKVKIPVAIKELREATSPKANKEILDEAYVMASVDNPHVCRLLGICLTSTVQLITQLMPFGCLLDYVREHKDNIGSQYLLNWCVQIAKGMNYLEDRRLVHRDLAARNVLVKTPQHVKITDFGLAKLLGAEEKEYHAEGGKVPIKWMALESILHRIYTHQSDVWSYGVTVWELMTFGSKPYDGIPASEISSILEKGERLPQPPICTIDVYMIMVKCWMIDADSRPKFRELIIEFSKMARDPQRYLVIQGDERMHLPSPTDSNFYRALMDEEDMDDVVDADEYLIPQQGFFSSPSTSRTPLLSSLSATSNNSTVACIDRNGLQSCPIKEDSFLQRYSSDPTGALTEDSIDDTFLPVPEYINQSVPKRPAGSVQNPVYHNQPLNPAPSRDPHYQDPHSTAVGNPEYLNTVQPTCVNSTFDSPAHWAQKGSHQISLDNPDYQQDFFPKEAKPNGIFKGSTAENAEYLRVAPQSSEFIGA
assay_info: Inhibition of EGFR (unknown origin) using Poly (Glu, Tyr) 4:1 as substrate at 1 uM preincubated with substrate followed by enzyme challenge for 1 hr by ELISA relative to control
readout_label: inhibition (%)

[
  {
    "molecular_string": "O=C(Nc1ccc2oc(-c3ccccc3F)nc2c1)c1ccc(Cl)c(Br)c1",
    "numeric_readout": 37.1
  },
  {
    "molecular_string": "COc1cc(CC(=O)Nc2ccc3oc(-c4ccccc4F)nc3c2)cc(OC)c1OC",
    "numeric_readout": 34.2
  },
  {
    "molecular_string": "Cc1ccc(CC(=O)Nc2ccc3oc(-c4ccccc4F)nc3c2)cc1",
    "numeric_readout": 39.5
  }
]
